Where do the numbers come from? From patent US10906897B2.

Examples of molecules with documented inhibition of growth at 20 ppm follow.
- Tested on: Botryotinia fuckeliana (Botrytis cinerea)
- Assay text: Botryotinia fuckeliana (Botrytis cinerea) / liquid culture (Gray mould)
- Format: cell-based
- Experimental setup: growth inhibition photometrically 3-4 days after application, compared to untreated control

Reference set (3 entries):
The recorded inhibition of growth at 20 ppm for entry CC1(C)N=C(c2cnn3cc(Cl)ccc23)c2ccccc2C1(F)F [Compound E-87] equals ≥ 80%

The recorded inhibition of growth at 20 ppm for entry Cc1ccn2c(C3=NC(C)(C)C(C)(C)c4c(F)cccc43)cnc2c1C [Compound E-50] equals ≥ 80%

The recorded inhibition of growth at 20 ppm for entry CCc1ccc2c(C3=NC(C)(C)C(F)(F)c4ccccc43)cnn2c1 [Compound E-86] equals ≥ 80%

Continuing:
The recorded inhibition of growth at 20 ppm for entry CC1(C)N=C(c2cnc3cc(C#N)ccn23)c2cccc(F)c2C1(C)C [Compound E-46] equals ≥ 80%

The recorded inhibition of growth at 20 ppm for entry Cc1ccc2c(C3=NC(C)(C)C(F)(F)c4ccccc43)cnn2c1 [Compound E-83] equals ≥ 80%

The recorded inhibition of growth at 20 ppm for entry CC1(C)Cc2c(Br)cccc2C(c2cnn3ccccc23)=N1 [Compound E-60] equals ≥ 80%

The recorded inhibition of growth at 20 ppm for entry CC1(C)N=C(c2cnc3cc(O)ccn23)c2cccc(F)c2C1(C)C [Compound E-49] equals ≥ 80%

The recorded inhibition of growth at 20 ppm for entry CC1(C)N=C(c2cnc3c(C#N)cccn23)c2cccc(F)c2C1(C)C [Compound E-38] equals ≥ 80%

The recorded inhibition of growth at 20 ppm for entry CC1(C)N=C(c2cnn3cc(Br)ccc23)c2ccccc2C1(F)F [Compound E-81] equals ≥ 80%
